What pIC50 was measured for each of the following?
tested on: A549 cells; assay: Cytotoxicity assay (MTT assay); assay type: cell-based, human; settings: A549, 24 h
Bear in mind: pIC50 is minus log10 of a mol/L concentration; give just that figure.

Ask | Fill in reported pIC50 for this entry: O=C(NCC(O)CO)c1cnc2c3c(cccc13)-c1ccccc1C2=O.[Cl-].[Cl-].[Pt+2] (racemic) [ligand 1, R/S-(±)-FOA]
Reply | 4.34

Ask | Fill in reported pIC50 for this entry: O=C(NC[C@H](O)CO)c1cnc2c3c(cccc13)-c1ccccc1C2=O.[Cl-].[Cl-].[Pt+2] [ligand 3, S-(–)-FOA]
Reply | 4.44

Ask | Fill in reported pIC50 for this entry: N.N.[Cl][Pt][Cl] [cisplatin, reference compound]
Reply | 4.67

Ask | Fill in reported pIC50 for this entry: O=C(NC[C@@H](O)CO)c1cnc2c3c(cccc13)-c1ccccc1C2=O.[Cl-].[Cl-].[Pt+2] [ligand 2, R-(+)-FOA]
Reply | 4.17

* * *

system: BEL-7404 cells; test: Cytotoxicity assay (MTT assay); assay type: cell-based, human; details: BEL-7404, 20 μM, 48 h
What Inhibitory rates (%) was measured for each of the following?
Give the number; % is assumed, so skip it.

Ask | Fill in reported Inhibitory rates (%) for this entry: O=C(NC[C@@H](O)CO)c1cnc2c3c(cccc13)-c1ccccc1C2=O.[Cl-].[Cl-].[Pt+2] [ligand 2, R-(+)-FOA]
Reply | 50.0

Ask | Fill in reported Inhibitory rates (%) for this entry: O=C(NCC(O)CO)c1cnc2c3c(cccc13)-c1ccccc1C2=O.[Cl-].[Cl-].[Pt+2] (racemic) [ligand 1, R/S-(±)-FOA]
Reply | 51.9

Ask | Fill in reported Inhibitory rates (%) for this entry: O=C(NC[C@H](O)CO)c1cnc2c3c(cccc13)-c1ccccc1C2=O.[Cl-].[Cl-].[Pt+2] [ligand 3, S-(–)-FOA]
Reply | 64.8

Ask | Fill in reported Inhibitory rates (%) for this entry: N.N.[Cl][Pt][Cl] [cisplatin, reference compound]
Reply | 54.2

* * *

system: HeLa cells; experiment: Cytotoxicity assay (MTT assay); type: cell-based, human; settings: 20 μM, 24 h
test readout: Inhibitory rates (%)
Give the number; % is assumed, so skip it.

Ask | Provide Inhibitory rates (%), tested on HeLa cells, for `O=C(NC[C@H](O)CO)c1cnc2c3c(cccc13)-c1ccccc1C2=O.[Cl-].[Cl-].[Pt+2]` .
Reply | 31.2

Ask | Provide Inhibitory rates (%), tested on HeLa cells, for N.N.[Cl][Pt][Cl] [cisplatin, reference compound] .
Reply | 64.3

Ask | Provide Inhibitory rates (%), tested on HeLa cells, for O=C(NCC(O)CO)c1cnc2c3c(cccc13)-c1ccccc1C2=O.[Cl-].[Cl-].[Pt+2] (racemic) [ligand 1, R/S-(±)-FOA] .
Reply | 25.6

Ask | Provide Inhibitory rates (%), tested on HeLa cells, for O=C(NC[C@@H](O)CO)c1cnc2c3c(cccc13)-c1ccccc1C2=O.[Cl-].[Cl-].[Pt+2] [ligand 2, R-(+)-FOA] .
Reply | 18.9

* * *

tested on: BEL-7404 cells; assay: Cytotoxicity assay (MTT assay); format: cell-based, human; conditions: BEL-7404, 20 μM, 24 h
What Inhibitory rates (%) was measured for each of the following?
Give the number; % is assumed, so skip it.

Ask | Provide Inhibitory rates (%), tested on BEL-7404 cells, for O=C(NC[C@@H](O)CO)c1cnc2c3c(cccc13)-c1ccccc1C2=O.[Cl-].[Cl-].[Pt+2] [ligand 2, R-(+)-FOA] .
Reply | 25.1

Ask | Provide Inhibitory rates (%), tested on BEL-7404 cells, for O=C(NCC(O)CO)c1cnc2c3c(cccc13)-c1ccccc1C2=O.[Cl-].[Cl-].[Pt+2] (racemic) [ligand 1, R/S-(±)-FOA] .
Reply | 35.9

Ask | Provide Inhibitory rates (%), tested on BEL-7404 cells, for N.N.[Cl][Pt][Cl] [cisplatin, reference compound] .
Reply | 45.5

Ask | Provide Inhibitory rates (%), tested on BEL-7404 cells, for `O=C(NC[C@H](O)CO)c1cnc2c3c(cccc13)-c1ccccc1C2=O.[Cl-].[Cl-].[Pt+2]` .
Reply | 42.8

* * *

tested on: MGC80-3 cells; experiment: Cytotoxicity assay (MTT assay); assay type: cell-based, human; details: MGC80-3, 48 h
test readout: pIC50
Bear in mind: pIC50 is minus log10 of a mol/L concentration; give just that figure.

Ask | Fill in reported pIC50 for this entry: N.N.[Cl][Pt][Cl] [cisplatin, reference compound]
Reply | 5.27

* * *

system: MGC80-3 cells; assay: Cytotoxicity assay (MTT assay); assay type: cell-based, human; settings: MGC80-3, 20 μM, 48 h
What Inhibitory rates (%) was measured for each of the following?
Give the number; % is assumed, so skip it.

Ask | Fill in reported Inhibitory rates (%) for this entry: O=C(NCC(O)CO)c1cnc2c3c(cccc13)-c1ccccc1C2=O.[Cl-].[Cl-].[Pt+2] (racemic) [ligand 1, R/S-(±)-FOA]
Reply | 24.9

Ask | Fill in reported Inhibitory rates (%) for this entry: N.N.[Cl][Pt][Cl] [cisplatin, reference compound]
Reply | 71.4

Ask | Fill in reported Inhibitory rates (%) for this entry: O=C(NC[C@@H](O)CO)c1cnc2c3c(cccc13)-c1ccccc1C2=O.[Cl-].[Cl-].[Pt+2] [ligand 2, R-(+)-FOA]
Reply | 19.6

Ask | Fill in reported Inhibitory rates (%) for this entry: `O=C(NC[C@H](O)CO)c1cnc2c3c(cccc13)-c1ccccc1C2=O.[Cl-].[Cl-].[Pt+2]`
Reply | 28.2

* * *

What IC50 was measured for each of the following?
test system: Hep-G2 cells; assay: Cytotoxicity assay (MTT assay); format: cell-based, human; conditions: Hep-G2, 24 h
Give the number; µM is assumed, so skip it.

Ask | Fill in reported IC50 for this entry: O=C(NC[C@@H](O)CO)c1cnc2c3c(cccc13)-c1ccccc1C2=O.[Cl-].[Cl-].[Pt+2] [ligand 2, R-(+)-FOA]
Reply | 90.6

Ask | Fill in reported IC50 for this entry: `O=C(NC[C@H](O)CO)c1cnc2c3c(cccc13)-c1ccccc1C2=O.[Cl-].[Cl-].[Pt+2]`
Reply | 70.1

Ask | Fill in reported IC50 for this entry: N.N.[Cl][Pt][Cl] [cisplatin, reference compound]
Reply | 19.5

Ask | Fill in reported IC50 for this entry: O=C(NCC(O)CO)c1cnc2c3c(cccc13)-c1ccccc1C2=O.[Cl-].[Cl-].[Pt+2] (racemic) [ligand 1, R/S-(±)-FOA]
Reply | 73.5

* * *

What Inhibitory rates (%) was measured for each of the following?
tested on: HL-7702 normal cells; experiment: Cytotoxicity assay (MTT assay); format: cell-based, human; conditions: HL-7702, 20 μM, 24 h
Give the number; % is assumed, so skip it.

Ask | Fill in reported Inhibitory rates (%) for this entry: N.N.[Cl][Pt][Cl] [cisplatin, reference compound]
Reply | 59.6

Ask | Fill in reported Inhibitory rates (%) for this entry: O=C(NC[C@@H](O)CO)c1cnc2c3c(cccc13)-c1ccccc1C2=O.[Cl-].[Cl-].[Pt+2] [ligand 2, R-(+)-FOA]
Reply | 25.2

Ask | Fill in reported Inhibitory rates (%) for this entry: `O=C(NC[C@H](O)CO)c1cnc2c3c(cccc13)-c1ccccc1C2=O.[Cl-].[Cl-].[Pt+2]`
Reply | 23.4

Ask | Fill in reported Inhibitory rates (%) for this entry: O=C(NCC(O)CO)c1cnc2c3c(cccc13)-c1ccccc1C2=O.[Cl-].[Cl-].[Pt+2] (racemic) [ligand 1, R/S-(±)-FOA]
Reply | 11.0

* * *

system: BEL-7402 cells; assay: Cytotoxicity assay (MTT assay); type: cell-based, human; details: BEL-7402, 48 h
test readout: pIC50
Bear in mind: pIC50 is minus log10 of a mol/L concentration; give just that figure.

Ask | Fill in reported pIC50 for this entry: N.N.[Cl][Pt][Cl] [cisplatin, reference compound]
Reply | 4.87
